The values you see were collected from patent US4147797A.

- measured-target: UniProtKB P16116
reported-metric: IC50 (µM)
Value expressed in µM; do not type the unit.

Form: molecule = Cc1cc2c(o1)CCCC21NC(=O)NC1=O (stereo not shown) [Example 2] ; IC50 = 100
